Recorded values, source paper PMC10641921.

- assay.method.text: Thermodynamic solubility
- Assay type: physicochemical
- setup.conditions: pH 6.8; read-out: Thermodynamic solubility at pH 6.8
measured.attribute: solubility thermodynamic (µM)
Numbers only; they are read as µM.

C[C@@]12COCCN1c1nc(-c3cccc4[nH]ccc34)ncc1N([C@H]1CC[C@H](O)CC1)C2=O [14c]	6

API: the following record is the query input.
Qu. Entry under review: `CC(F)(F)CN1C(=O)[C@]2(C)COCCN2c2nc(-c3ccc(NC(=O)NC4CC4)cc3)ncc21` . Reported solubility thermodynamic?
Ans. 0.6

---

Each entry below lists one item and its recorded IC50 value.
- Tested on: pAKT-S473 in PC-3 cells (TORC2)
- assay.method.text: Cellular p-AKT (ser473) AlphaScreen assay in PC-3 cells (TORC2 activity)
- Format: cell-based, human
- setup.conditions: Homo sapiens, PC-3, read-out: pAKT S473 Cell IC50
Field: numeric (µM). Do not append units.

CC(=O)N1CCC(N2C(=O)[C@]3(C)COCCN3c3nc(-c4cccc5[nH]ccc45)ncc32)CC1 [14a]	0.055

Now take the following compound into account.
Qu. # query: IC50 | item C[C@@]12COCCN1c1nc(-c3cnc4[nH]ccc4c3)ncc1N(C1CCN(S(C)(=O)=O)CC1)C2=O [13e] | system: pAKT-S473 in PC-3 cells (TORC2)
Ans. 0.12
